# target: T1, Human EphA2 (Ecto) (Human, UniProt P29317 24-537)
# T1 construct: extracellular domain
# T1 sequence (P29317 24-537): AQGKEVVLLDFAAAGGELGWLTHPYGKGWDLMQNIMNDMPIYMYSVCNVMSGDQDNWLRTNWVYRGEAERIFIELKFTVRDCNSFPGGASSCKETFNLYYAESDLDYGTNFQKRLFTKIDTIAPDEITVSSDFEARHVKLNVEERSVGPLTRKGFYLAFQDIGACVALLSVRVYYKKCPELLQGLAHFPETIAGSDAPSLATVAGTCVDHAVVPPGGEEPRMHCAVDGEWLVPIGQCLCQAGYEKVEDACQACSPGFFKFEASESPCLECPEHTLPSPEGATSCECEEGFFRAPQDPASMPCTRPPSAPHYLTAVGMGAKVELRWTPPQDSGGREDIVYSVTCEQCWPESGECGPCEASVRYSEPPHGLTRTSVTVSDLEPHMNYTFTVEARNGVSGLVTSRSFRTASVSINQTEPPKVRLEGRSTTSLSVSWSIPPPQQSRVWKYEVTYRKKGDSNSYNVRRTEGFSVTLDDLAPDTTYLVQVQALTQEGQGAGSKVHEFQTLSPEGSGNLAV
# protocol: FP competition; competitor Compound 18
Numbered stars: 1 amine (or outer) side, 2 acyl side, 3 side chain; on linkers, the order of the positions; unused ones are H or OH. Bridge positions count the residues as written; N and C are the ends. Square brackets hold non-standard residues; d marks the D form. Ends that are not written are not given here. 1Nal = N[C@@H](Cc1cccc2ccccc12)C(=O)O; TBMB = c1c(C[*:1])cc(C[*:3])cc1C[*:2]; Gly(cPent) = N[C@H](C(=O)O)C1CCCC1; hArg = N=C(N)NCCCC[C@H](N)C(=O)O; Tle = CC(C)(C)[C@H](N)C(=O)O; Aib = CC(C)(N)C(=O)O; βAla = NCCC(=O)O; Sar = CNCC(=O)O
quantity name: Ki (nM)

Solved cases (5 shown):
binder: [βAla][Sar][Sar][Sar][Sar][Sar][Sar][Sar][Sar][Sar][Sar]H[dD]VPC[dA][1Nal]G[Aib]F[1Nal]CP[Tle]N[hArg]P[dD]C (linker 16-23-30 via TBMB) [Compound 248]
quantity name: Ki
readout unit: nM
numeric readout: 28.4
//
binder: {Ac-βAla}-[Sar][Sar][Sar][Sar][Sar][Sar][Sar][Sar][Sar][Sar]H[dD]VPC[Aib][1Nal]G[Aib]F[1Nal]CP[Tle]NR[Aib][dD]C (linker 15-22-29 via TBMB) [Compound 241]
quantity name: Ki
readout unit: nM
numeric readout: 2.98
//
binder: [βAla][Sar][Sar][Sar][Sar][Sar][Sar][Sar][Sar][Sar][Sar]H[dD]VPC[Aib][1Nal]GP[hArg][1Nal]CP[Tle]NR[Aib]GC (linker 16-23-30 via TBMB) [Compound 243]
quantity name: Ki
readout unit: nM
numeric readout: 2.83
//
binder: Ac-[Sar][Sar]H[dD]VPCP[1Nal]G[Aib]F[1Nal]CP[Tle]N[hArg]PGC (linker 7-14-21 via TBMB) [Compound 253]
quantity name: Ki
readout unit: nM
numeric readout: 0.85
//
binder: [βAla][Sar][Sar][Sar][Sar][Sar][Sar][Sar][Sar][Sar][Sar]H[dD][Gly(cPent)]TCP[1Nal]G[Aib]F[1Nal]CP[Tle]N[hArg]P[dD]C (linker 16-23-30 via TBMB) [Compound 280]
quantity name: Ki
readout unit: nM
numeric readout: 0.64

(a) Ac-[Sar][Sar]A[dH]DVPCP[1Nal]G[Aib]F[1Nal]CP[Tle]NR[Aib]GC (linker 8-15-22 via TBMB) [Compound 232]
(b) {Ac-βAla}-[Sar][Sar][Sar][Sar][Sar][Sar][Sar][Sar][Sar][Sar]H[dD][Gly(cPent)]PC[Aib][1Nal]G[Aib]F[1Nal]CP[Tle]NR[Aib][dD]C (linker 15-22-29 via TBMB) [Compound 274]
(c) [βAla][Sar][Sar][Sar][Sar][Sar][Sar][Sar][Sar][Sar][Sar]H[dD]VPC[Aib]WGP[hArg]WCP[Tle]N[hArg]P[dD]C (linker 16-23-30 via TBMB) [Compound 246]
(d) [βAla][Sar][Sar][Sar][Sar][Sar][Sar][Sar][Sar][Sar][Sar]H[dD]VPCP[1Nal]G[Aib][hArg][1Nal]CP[Tle]NR[Aib]GC (linker 16-23-30 via TBMB) [Compound 249]
Inquiry: Arrange these binders by their Ki, starting with the largest number. Thanks in advance for listing the labels in the requested order.
Reply text: c, b, d, a
(c: 31.4 nM, b: 2.28 nM, d: 1.38 nM, a: 0.9 nM)
